Target: T1, human Trop-2 expressed on cell surface (human, UniProt P09758 27-323)
T1 sequence (looked up): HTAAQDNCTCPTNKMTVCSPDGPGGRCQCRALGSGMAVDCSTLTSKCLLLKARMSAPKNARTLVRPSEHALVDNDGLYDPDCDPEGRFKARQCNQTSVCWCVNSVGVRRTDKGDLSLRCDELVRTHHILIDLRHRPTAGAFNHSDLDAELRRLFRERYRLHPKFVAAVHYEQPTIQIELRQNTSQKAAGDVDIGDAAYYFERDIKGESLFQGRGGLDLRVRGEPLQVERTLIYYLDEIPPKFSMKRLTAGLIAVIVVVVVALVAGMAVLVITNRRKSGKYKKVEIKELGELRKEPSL
Assay: cell-based or functional assay
# reported Internalization %, MCF-7, 0.25 µg/ml, 4 h; entries follow
Assay Readout: Internalization %, MCF-7, 0.25 µg/ml, 4 h (%)

| Binder | Obs Value |
| --- | --- |
| 62E3 (antibody, V domains shown, Rabbit-derived clone; LEM construct: VH + rabbit IgG CH1 + human IgG1 CH2-CH3) VH: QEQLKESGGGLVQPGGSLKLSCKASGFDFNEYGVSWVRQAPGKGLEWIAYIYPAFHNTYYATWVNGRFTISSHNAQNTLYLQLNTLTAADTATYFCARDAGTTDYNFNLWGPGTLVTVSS VL: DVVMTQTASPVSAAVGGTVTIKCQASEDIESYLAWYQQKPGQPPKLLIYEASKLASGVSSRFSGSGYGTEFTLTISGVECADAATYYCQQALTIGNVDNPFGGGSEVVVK | 45 |
| 72F12 (antibody, V domains shown, Rabbit-derived clone; LEM construct: VH + rabbit IgG CH1 + human IgG1 CH2-CH3) VH: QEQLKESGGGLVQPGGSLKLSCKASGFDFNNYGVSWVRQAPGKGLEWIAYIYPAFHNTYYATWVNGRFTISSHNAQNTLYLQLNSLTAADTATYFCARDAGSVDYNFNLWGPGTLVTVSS VL: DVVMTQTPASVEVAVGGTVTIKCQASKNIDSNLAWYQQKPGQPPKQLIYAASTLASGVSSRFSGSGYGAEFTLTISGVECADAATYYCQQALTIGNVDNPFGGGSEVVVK | 47 |
| 74F11/15F5 (antibody, human IgG1, V domains shown, LEM construct: VH + rabbit IgG CH1 + human IgG1 CH2-CH3) VH: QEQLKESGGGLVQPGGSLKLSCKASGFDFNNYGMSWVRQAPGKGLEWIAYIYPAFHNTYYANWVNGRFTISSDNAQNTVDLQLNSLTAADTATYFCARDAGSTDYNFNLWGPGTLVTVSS VL: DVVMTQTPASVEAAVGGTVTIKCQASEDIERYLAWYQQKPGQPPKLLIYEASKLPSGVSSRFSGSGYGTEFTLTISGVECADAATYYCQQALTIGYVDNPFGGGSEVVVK | 64 |
| 5D4 (antibody, V domains shown, Rabbit-derived clone; LEM construct: VH + rabbit IgG CH1 + human IgG1 CH2-CH3) VH: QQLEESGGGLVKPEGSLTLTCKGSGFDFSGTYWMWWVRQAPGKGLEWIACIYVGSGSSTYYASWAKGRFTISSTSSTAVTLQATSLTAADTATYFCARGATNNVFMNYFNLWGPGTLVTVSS VL: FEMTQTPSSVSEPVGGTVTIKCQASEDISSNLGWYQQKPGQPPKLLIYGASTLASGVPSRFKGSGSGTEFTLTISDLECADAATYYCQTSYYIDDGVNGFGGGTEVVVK | 64 |
| 5D4-2 (antibody, V domains shown) VH: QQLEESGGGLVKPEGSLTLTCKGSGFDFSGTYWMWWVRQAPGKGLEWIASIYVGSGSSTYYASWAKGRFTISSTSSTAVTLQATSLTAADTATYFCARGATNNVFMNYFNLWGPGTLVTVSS VL: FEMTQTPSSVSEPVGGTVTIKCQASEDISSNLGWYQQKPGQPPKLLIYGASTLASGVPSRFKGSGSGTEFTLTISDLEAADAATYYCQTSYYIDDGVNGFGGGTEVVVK | 58 |
